experimental-target: T1, human GITR (amino acids M1-V241, NCBI Accession #NP_004186.1) expressed on cells (human, UniProt Q9Y5U5 26-241)
T1 sequence: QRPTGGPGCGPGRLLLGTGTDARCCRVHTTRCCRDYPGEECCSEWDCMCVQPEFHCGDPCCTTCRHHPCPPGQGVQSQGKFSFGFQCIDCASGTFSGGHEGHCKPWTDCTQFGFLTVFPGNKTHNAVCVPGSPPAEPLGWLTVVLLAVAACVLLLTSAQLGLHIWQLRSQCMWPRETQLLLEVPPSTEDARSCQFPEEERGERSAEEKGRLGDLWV
test-name: cell-based or functional assay
measured-parameter: fold activation, T-cell proliferation, plate-bound Ab 10.6 nM, donor 8 (fold)

binder | value-measured
H4H14470P (antibody, human IgG4, V domains shown, human IgG4 (H4H)) VH: QVQLVESGGGVVQPGRSLRLSCAASGFTVRNYGMHWVRQAPGKGLEWVAVIWYDGSNKYYADSVKGRFTISRDNSKNTLFLQMNSLRAEDTAVYYCARGGELVRGDYYYGMDVWGQGTTVTVSS VL: DIQMTQSPSSLSASVGDRVTITCRASQGIRNDLGWYQQKPGKAPKRLIYGASSLQSGVPSRFSGSGSGTEFTLTISSLQPEDFATYYCLQHNSYPYTFGQGTKLEIK | 1
H4H14521P (antibody, human IgG4, V domains shown, human IgG4 (H4H)) VH: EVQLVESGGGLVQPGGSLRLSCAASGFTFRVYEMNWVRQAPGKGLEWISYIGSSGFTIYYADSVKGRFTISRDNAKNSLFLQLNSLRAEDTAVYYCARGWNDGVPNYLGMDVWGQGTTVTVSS VL: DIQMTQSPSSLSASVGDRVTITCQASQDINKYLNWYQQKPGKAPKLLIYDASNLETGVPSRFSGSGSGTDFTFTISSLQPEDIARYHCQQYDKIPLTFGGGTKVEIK | 2
H4H14469P (antibody, human IgG4, V domains shown, human IgG4 (H4H)) VH: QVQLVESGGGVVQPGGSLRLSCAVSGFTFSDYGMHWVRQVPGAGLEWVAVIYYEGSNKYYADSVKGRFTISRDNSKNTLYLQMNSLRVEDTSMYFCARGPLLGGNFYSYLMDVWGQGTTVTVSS VL: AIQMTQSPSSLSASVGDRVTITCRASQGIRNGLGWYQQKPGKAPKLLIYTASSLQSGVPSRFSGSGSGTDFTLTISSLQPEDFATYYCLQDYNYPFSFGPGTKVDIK | 11
H4H14528P (antibody, human IgG4, V domains shown, human IgG4 (H4H)) VH: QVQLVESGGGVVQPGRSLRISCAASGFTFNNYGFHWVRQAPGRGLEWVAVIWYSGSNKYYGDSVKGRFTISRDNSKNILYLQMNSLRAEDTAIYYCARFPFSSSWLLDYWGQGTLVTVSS VL: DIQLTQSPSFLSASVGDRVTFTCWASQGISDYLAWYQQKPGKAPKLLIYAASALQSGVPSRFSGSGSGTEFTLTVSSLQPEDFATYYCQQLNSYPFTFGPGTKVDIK | 4
